Data origin, for the record: patent US8633245B2

For each of the compounds below, state its Inhibition Rate of PAI-1 Activity (%).
Molecular target: recombinant human PAI-1 (Homo sapiens, UniProt P05121)
Construct: purchased Molecular Innovations, Inc
Sequence (P05121 24-402): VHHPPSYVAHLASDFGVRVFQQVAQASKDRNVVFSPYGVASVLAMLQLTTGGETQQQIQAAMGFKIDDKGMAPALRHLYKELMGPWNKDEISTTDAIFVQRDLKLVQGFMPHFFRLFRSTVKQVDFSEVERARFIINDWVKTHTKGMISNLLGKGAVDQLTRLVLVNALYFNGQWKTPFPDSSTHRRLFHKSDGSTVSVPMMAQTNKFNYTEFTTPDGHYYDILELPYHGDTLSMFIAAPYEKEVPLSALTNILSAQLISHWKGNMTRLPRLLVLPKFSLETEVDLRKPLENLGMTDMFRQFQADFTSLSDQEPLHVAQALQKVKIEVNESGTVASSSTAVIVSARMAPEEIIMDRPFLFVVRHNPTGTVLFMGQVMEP
Assay: Test Example 2: human PAI-1 inhibitory activity (tPA fluorogenic substrate, pH 7.4 HEPES buffer)
Type: biochemical
Settings: human PAI-1; compound concentration 3 μM
Unit % implied. Number only.

Return value of Inhibition Rate of PAI-1 Activity (%) for input `CCCCCOc1ccc(-c2ccc(OC(F)(F)F)cc2)cc1N(CCCCc1cc(C)ccc1C)C(=O)C(=O)O` , no commentary.
94

Return value of Inhibition Rate of PAI-1 Activity (%) for input `CCCCCOc1cc(-c2ccc(OC(F)(F)F)cc2)ccc1N(CCCCc1ccccc1)CC(=O)O` , no commentary.
92

Return value of Inhibition Rate of PAI-1 Activity (%) for input `CC(C)(C)c1ccc(CN(C(=O)CC(=O)O)c2ccc(-c3ccc(OC(F)(F)F)cc3)cc2)cc1` , no commentary.
59

Return value of Inhibition Rate of PAI-1 Activity (%) for input `O=C(O)C(=O)N(CCCCc1ccccc1)c1cc(-c2ccc(OC(F)(F)F)cc2)ccc1OC1CCCCCC1` , no commentary.
96

Return value of Inhibition Rate of PAI-1 Activity (%) for input `O=C(O)CC(=O)N(Cc1ccccc1)c1ccc(-c2ccc(OC(F)(F)F)cc2)cc1F` , no commentary.
18

Return value of Inhibition Rate of PAI-1 Activity (%) for input `CC(C)(C)c1ccc(Oc2cc(Oc3ccc(OC(F)(F)F)cc3)ccc2OCC(=O)O)cc1` , no commentary.
98

Return value of Inhibition Rate of PAI-1 Activity (%) for input `Cc1cc(C)cc(Oc2cc(-c3ccc(C(C)(C)C)cc3)ccc2CCC(=O)O)c1` , no commentary.
98

Return value of Inhibition Rate of PAI-1 Activity (%) for input `CC(C)(C)c1ccc(N(Cc2ccc(-c3ccccc3)cc2)C(=O)C(=O)O)cc1` , no commentary.
25

Return value of Inhibition Rate of PAI-1 Activity (%) for input `CC(C)(C)c1ccc(COc2ccc(-c3ccc(OC(F)(F)F)cc3)cc2C(=O)O)cc1` , no commentary.
81

---

Molecular target: recombinant human PAI-1 (Homo sapiens)
Construct: purchased Molecular Innovations, Inc
Assay: Test Example 1: human PAI-1 inhibitory activity (tPA fluorogenic substrate, pH 7.5 Tris buffer)
Type: biochemical
Details: Compound Concentration 5 μM; Tris buffer
Use 40% as the dividing line for Inhibition Rate of PAI-1 Activity (%), with the line itself on the Yes side and lower values as No.

Please tell me: is the compound `CC(C)(C)c1ccc(COc2ccc(-c3ccc(C(C)(C)C)cc3)cc2CCC(=O)O)cc1` at or over 40% in terms of Inhibition Rate of PAI-1 Activity (%)?
No

Please tell me: is the compound `CC(C)(C)c1ccc(N(C(=O)C(=O)O)c2ccc(-c3ccc(OC(F)(F)F)cc3)cc2)cc1` at or over 40% in terms of Inhibition Rate of PAI-1 Activity (%)?
Yes

Please tell me: is the compound `CC(C)(C)c1ccc(COc2ccc(-c3cccc(OC(F)(F)F)c3)cc2/C=C/C(=O)O)cc1` at or over 40% in terms of Inhibition Rate of PAI-1 Activity (%)?
No

Please tell me: is the compound `CC(C)(Nc1cc(-c2ccc(OC(F)(F)F)cc2)ccc1OCc1ccc(C(C)(C)C)cc1)C(=O)O` at or over 40% in terms of Inhibition Rate of PAI-1 Activity (%)?
Yes

Please tell me: is the compound `CC(C)(C)c1ccc(COc2c(Cl)cc(-c3ccc(OC(F)(F)F)cc3)cc2C=CC(=O)O)cc1` at or over 40% in terms of Inhibition Rate of PAI-1 Activity (%)?
No

Please tell me: is the compound `CC(C)(C)c1ccc(Oc2ccc(-c3ccc(OC(F)(F)F)cc3)cc2CCC(=O)O)c(CCC(=O)O)c1` at or over 40% in terms of Inhibition Rate of PAI-1 Activity (%)?
Yes

Please tell me: is the compound `CC(C)(C)c1ccc(CN(C(=O)C(=O)O)c2ccc(OCc3ccc(OC(F)(F)F)cc3)cc2)cc1` at or over 40% in terms of Inhibition Rate of PAI-1 Activity (%)?
Yes

Please tell me: is the compound `CC(C)(C)c1ccc(CN(C(=O)C(=O)O)c2ccc(N3CCOCC3)c(-c3ccc(OC(F)(F)F)cc3)c2)cc1` at or over 40% in terms of Inhibition Rate of PAI-1 Activity (%)?
Yes

Please tell me: is the compound `CC(C)(C)c1ccc(-c2ccc(N(Cc3ccc(OC(F)(F)F)cc3)C(=O)C(=O)O)cc2)cc1` at or over 40% in terms of Inhibition Rate of PAI-1 Activity (%)?
No

Please tell me: is the compound `CC(C)(C)c1ccc(COc2ccc(-c3ccccc3)cc2/C=C/C(=O)O)cc1` at or over 40% in terms of Inhibition Rate of PAI-1 Activity (%)?
No

Please tell me: is the compound `Cc1ccc(N(Cc2ccc(C(C)(C)C)cc2)C(=O)C(=O)O)cc1OCc1ccc(OC(F)(F)F)cc1` at or over 40% in terms of Inhibition Rate of PAI-1 Activity (%)?
Yes

Please tell me: is the compound `O=C(O)CCc1cc(-c2ccc(OC(F)(F)F)cc2)ccc1OCCCCCc1ccccc1` at or over 40% in terms of Inhibition Rate of PAI-1 Activity (%)?
Yes

Please tell me: is the compound `Cc1cc(C)cc(COc2ccc(-c3ccc(OC(F)(F)F)cc3)cc2CCC(=O)O)c1` at or over 40% in terms of Inhibition Rate of PAI-1 Activity (%)?
No

---

Molecular target: recombinant human PAI-1 (Homo sapiens, UniProt P05121)
Construct: purchased Molecular Innovations, Inc
Assay: Test Example 2: human PAI-1 inhibitory activity (tPA fluorogenic substrate, pH 7.4 HEPES buffer)
Assay type: biochemical
Conditions: human PAI-1; compound concentration 0.1 μM
Use 10% as the dividing line for Inhibition Rate of PAI-1 Activity (%), with the line itself on the Met side and lower values as Not met.

Please tell me: is the compound `CC(C)(C)c1ccc(Cc2cc(-c3ccc(OC(F)(F)F)cc3)ccc2OCC(=O)O)cc1` at or over 10% in terms of Inhibition Rate of PAI-1 Activity (%)?
Not met

Please tell me: is the compound `CC(C)(C)c1ccc(Oc2cc(-c3cccc([N+](=O)[O-])c3)ccc2OCC(=O)O)cc1` at or over 10% in terms of Inhibition Rate of PAI-1 Activity (%)?
Not met

Please tell me: is the compound `O=C(O)C(=O)N(CCCCc1ccccc1)c1ccc(N2CCCC2)c(-c2ccc(OC(F)(F)F)cc2)c1` at or over 10% in terms of Inhibition Rate of PAI-1 Activity (%)?
Not met

Please tell me: is the compound `CC(C)(C)c1ccc(Oc2cc(-c3ccc(C(C)(C)C)cc3)ccc2/C=C/C(=O)O)cc1` at or over 10% in terms of Inhibition Rate of PAI-1 Activity (%)?
Not met

Please tell me: is the compound CC(Oc1cc(-c2ccc(OC(F)(F)F)cc2)ccc1CCC(=O)O)c1ccccc1 (centres unmarked) at or over 10% in terms of Inhibition Rate of PAI-1 Activity (%)?
Met

Please tell me: is the compound O=C(O)C(=O)N(CCCCc1ccccc1)c1cc(-c2ccc(OC(F)(F)F)cc2)ccc1OC1C2CC3CC(C2)CC1C3 (centres unmarked) at or over 10% in terms of Inhibition Rate of PAI-1 Activity (%)?
Met

Please tell me: is the compound `CC(C)(C)c1cccc(Oc2ccc(-c3ccc(OC(F)(F)F)cc3)cc2CCC(=O)O)c1` at or over 10% in terms of Inhibition Rate of PAI-1 Activity (%)?
Met

Please tell me: is the compound `O=C(O)CCc1ccc(-c2ccc(OC(F)(F)F)cc2)cc1OCCCOCc1ccccc1` at or over 10% in terms of Inhibition Rate of PAI-1 Activity (%)?
Not met

---

Target: recombinant human PAI-1 (Homo sapiens, UniProt P05121)
Construct: purchased Molecular Innovations, Inc
Experiment: Test Example 2: human PAI-1 inhibitory activity (tPA fluorogenic substrate, pH 7.4 HEPES buffer)
Assay type: biochemical
Parameter Measured: IC50

Return value of IC50 for input `CCCCCOc1ccc(-c2ccc(OC(F)(F)F)cc2)cc1N(CCCCc1ccc(F)cc1)C(=O)C(=O)O` , no commentary.
650 nM

Return value of IC50 for input `CCCCCOc1ccc(-c2ccc(OC(F)(F)F)cc2)cc1N(CCCCOc1ccccc1)C(=O)C(=O)O` , no commentary.
880 nM

Return value of IC50 for input `CCCCCOc1ccc(-c2cccc(C)c2)cc1N(CCCCc1ccccc1)C(=O)C(=O)O` , no commentary.
640 nM

Return value of IC50 for input `O=C(O)C(=O)N(CCCCc1ccccc1)c1cc(-c2ccc(OC(F)(F)F)cc2)ccc1OCCCCC(F)(F)F` , no commentary.
1040 nM

Return value of IC50 for input `CCCCCOc1ccc(-c2ccc(OC(F)(F)F)cc2)cc1N(CCCCc1ccc(Cl)cc1)C(=O)C(=O)O` , no commentary.
510 nM

Return value of IC50 for input `CCCCCOc1cc(-c2ccc(C(F)(F)F)cc2)ccc1N(CCCCc1ccccc1)C(=O)C(=O)O` , no commentary.
710 nM

Return value of IC50 for input `CCCCCCCCCCCCCCCOc1ccc(-c2ccc(OC(F)(F)F)cc2)cc1N(CCCCc1ccccc1)C(=O)C(=O)O` , no commentary.
< 100 nM

Return value of IC50 for input `CC(C)(C)Oc1ccc(-c2ccc(OC(F)(F)F)cc2)cc1N(CCCCc1ccccc1)C(=O)C(=O)O` , no commentary.
1580 nM

Return value of IC50 for input `O=C(O)C(=O)N(CCCCc1ccccc1)c1cc(-c2ccc(OC(F)(F)F)cc2)ccc1OCCC(F)(F)F` , no commentary.
1340 nM
